- Test system: HeLa Kyoto
- protocolText: solubility change mitosis vs G1/S (difference of NP-40 vs SDS log2 ratios) (log2 ratio difference); higher = more soluble in mitosis
quantityKind: solubility change mitosis (log2)
Give the figure by itself; no unit, no explanation.

chain: MNNKFDALKDDDSGDHDQNEENSTQKDGEKEKTERDKNQSSSKRKAVVPGPAEHPLQYNYTFWYSRRTPGRPTSSQSYEQNIKQIGTFASVEQFWRFYSHMVRPGDLTGHSDFHLFKEGIKPMWEDDANKNGGKWIIRLRKGLASRCWENLILAMLGEQFMVGEEICGAVVSVRFQEDIISIWNKTASDQATTARIRDTLRRVLNLPPNTIMEYKTHTDSIKMPGRLGPQRLLFQNLWKPRLNVP [EIF4E2]
solubility change mitosis (log2): 0.000807
//
chain: MAATKRKRRGGFAVQAKKPKRNEIDAEPPAKRHATAEEVEEEERDRIPGPVCKGKWKNKERILIFSSRGINFRTRHLMQDLRMLMPHSKADTKMDRKDKLFVINEVCEMKNCNKCIYFEAKKKQDLYMWLSNSPHGPSAKFLVQNIHTLAELKMTGNCLKGSRPLLSFDPAFDELPHYALLKELLIQIFSTPRYHPKSQPFVDHVFTFTILDNRIWFRNFQIIEEDAALVEIGPRFVLNLIKIFQGSFGGPTLYENPHYQSPNMHRRVIRSITAAKYREKQQVKDVQKLRKKEPKTLLPHDPTADVFVTPAEEKPIEIQWVKPEPKVDLKARKKRIYKRQRKMKQRMDSGKTK [BRIX1]
solubility change mitosis (log2): 1.19

Shift focus to the following entry.
Complete the entry with solubility change mitosis (log2) for MLSRAVCGTSRQLAPVLGYLGSRQKHSLPDLPYDYGALEPHINAQIMQLHHSKHHAAYVNNLNVTEEKYQEALAKGDVTAQIALQPALKFNGGGHINHSIFWTNLSPNGGGEPKGELLEAIKRDFGSFDKFKEKLTAASVGVQGSGWGWLGFNKERGHLQIAACPNQDPLQGTTGLIPLLGIDVWEHAYYLQYKNVRPDYLKAIWNVINWENVTERYMACKK [SOD2] 0.133

###

- System: HeLa Kyoto
- protocolText: solubility in G1/S (NP-40 vs SDS abundance) (log2 ratio); higher = more soluble
- conditionContext: cell cycle stage: G1/S
True means recorded solubility in G1/S (log2) is -0.02 or above; False means it is below -0.02.

chain: MASYYEILDVPRSASADDIKKAYRRKALQWHPDKNPDNKEFAEKKFKEVAEAYEVLSDKHKREIYDRYGREGLTGTGTGPSRAEAGSGGPGFTFTFRSPEEVFREFFGSGDPFAELFDDLGPFSELQNRGSRHSGPFFTFSSSFPGHSDFSSSSFSFSPGAGAFRSVSTSTTFVQGRRITTRRIMENGQERVEVEEDGQLKSVTINGVPDDLALGLELSRREQQPSVTSRSGGTQVQQTPASCPLDSDLSEDEDLQLAMAYSLSEMEAAGKKPAGGREAQHRRQGRPKAQHQDPGLGGTQEGARGEATKRSPSPEEKASRCLIL [DNAJB2]
answerLabel: True
//
chain: MPDENIFLFVPNLIGYARIVFAIISFYFMPCCPLTASSFYLLSGLLDAFDGHAARALNQGTRFGAMLDMLTDRCSTMCLLVNLALLYPGATLFFQISMSLDVASHWLHLHSSVVRGSESHKMIDLSGNPVLRIYYTSRPALFTLCAGNELFYCLLYLFHFSEGPLVGSVGLFRMGLWVTAPIALLKSLISVIHLITAARNMAALDAADRAKKK [CDIPT]
answerLabel: False
//
chain: MAELDIGQHCQVEHCRQRDFLPFVCDDCSGIFCLEHRSRESHGCPEVTVINERLKTDQHTSYPCSFKDCAERELVAVICPYCEKNFCLRHRHQSDHECEKLEIPKPRMAATQKLVKDIIDSKTGETASKRWKGAKNSETAAKVALMKLKMHADGDKSLPQTERIYFQVFLPKGSKEKSKPMFFCHRWSIGKAIDFAASLARLKNDNNKFTAKKLRLCHITSGEALPLDHTLETWIAKEDCPLYNGGNIILEYLNDEEQFCKNVESYLE [ZFAND1]
answerLabel: True
//
chain: MAQAKINAKANEGRFCRSSSMADRSSRLLESLDQLELRVEALREAATAVEQEKEILLEMIHSIQNSQDMRQISDGEREELNLTANRLMGRTLTVEVSVETIRNPQQQESLKHATRIIDEVVNKFLDDLGNAKSHLMSLYSACSSEVPHGPVDQKFQSIVIGCALEDQKKIKRRLETLLRNIENSDKAIKLLEHSKGAGSKTLQQNAESRFN [BAG2]
answerLabel: True
//
chain: MSKSLKKLVEESREKNQPEVDMSDRGISNMLDVNGLFTLSHITQLVLSHNKLTMVPPNIAELKNLEVLNFFNNQIEELPTQISSLQKLKHLNLGMNRLNTLPRGFGSLPALEVLDLTYNNLSENSLPGNFFYLTTLRALYLSDNDFEILPPDIGKLTKLQILSLRDNDLISLPKEIGELTQLKELHIQGNRLTVLPPELGNLDLTGQKQVFKAENNPWVTPIADQFQLGVSHVFEYIRSETYKYLYGRHMQANPEPPKKNNDKSKKISRKPLAAKNR [RSU1]
answerLabel: True
//
chain: MGKVRGLRARVHQAAVRPKGEAAPGPAPPAPEATPPPASAAGKDWAFINTNIFARTKIDPSALVQKLELDVRSVTSVRRGEAGSSARSVPSIRRGAEAKTVLPKKEKMKLRREQWLQKIEAIKLAEQKHREERRRRATVVVGDLHPLRDALPELLGLEAGSRRQARSRESNKPRPSELSRMSAAQRQQLLEEERTRFQELLASPAYRASPLVAIGQTLARQMQLEDGGQL [FAM207A]
answerLabel: False
//
chain: MSSSPVKRQRMESALDQLKQFTTVVADTGDFHAIDEYKPQDATTNPSLILAAAQMPAYQELVEEAIAYGRKLGGSQEDQIKNAIDKLFVLFGAEILKKIPGRVSTEVDARLSFDKDAMVARARRLIELYKEAGISKDRILIKLSSTWEGIQAGKELEEQHGIHCNMTLLFSFAQAVACAEAGVTLISPFVGRILDWHVANTDKKSYEPLEDPGVKSVTKIYNYYKKFSYKTIVMGASFRNTGEIKALAGCDFLTISPKLLGELLQDNAKLVPVLSAKAAQASDLEKIHLDEKSFRWLHNEDQMAVEKLSDGIRKFAADAVKLERMLTERMFNAENGK [TALDO1]
answerLabel: True
//
chain: MESYDIIANQPVVIDNGSGVIKAGFAGDQIPKYCFPNYVGRPKHMRVMAGALEGDLFIGPKAEEHRGLLTIRYPMEHGVVRDWNDMERIWQYVYSKDQLQTFSEEHPVLLTEAPLNPSKNREKAAEVFFETFNVPALFISMQAVLSLYATGRTTGVVLDSGDGVTHAVPIYEGFAMPHSIMRVDIAGRDVSRYLRLLLRKEGVDFHTSAEFEVVRTIKERACYLSINPQKDEALETEKVQYTLPDGSTLDVGPARFRAPELLFQPDLVGDESEGLHEVVAFAIHKSDMDLRRTLFANIVLSGGSTLFKGFGDRLLSEVKKLAPKDIKIKISAPQERLYSTWIGGSILASLDTFKKMWVSKKEYEEDGSRAIHRKTF [ACTR1B]
answerLabel: False

Is solubility in G1/S (log2) at least -0.02? Consider MAPLLLQLAVLGAALAAAALVLISIVAFTTATKMPALHRHEEEKFFLNAKGQKETLPSIWDSPTKQLSVVVPSYNEEKRLPVMMDEALSYLEKRQKRDPAFTYEVIVVDDGSKDQTSKVAFKYCQKYGSDKVRVITLVKNRGKGGAIRMGIFSSRGEKILMADADGATKFPDVEKLEKGLNDLQPWPNQMAIACGSRAHLEKESIAQRSYFRTLLMYGFHFLVWFLCVKGIRDTQCGFKLFTREAASRTFSSLHVERWAFDVELLYIAQFFKIPIAEIAVNWTEIEGSKLVPFWSWLQMGKDLLFIRLRYLTGAWRLEQTRKMN [ALG5] False

For this sequence, is measured solubility in G1/S (log2) -0.02 or higher? MTHSLVCPETVSRVSSVLNRNTRQFGKKHLFDQDEETCWNSDQGPSQWVTLEFPQLIRVSQLQIQFQGGFSSRRGCLEGSQGTQALHKIVDFYPEDNNSLQTFPIPAAEVDRLKVTFEDATDFFGRVVIYHLRVLGEKV [NR2C2AP] True

Threshold query (solubility in G1/S (log2) >= -0.02) on MVAYWRQAGLSYIRYSQICAKAVRDALKTEFKANAEKTSGSNVKIVKVKKE [ATP5E] False
